All values here come from patent US6812225B2.

Measured melting point values are reported for all entries that follow.

* COc1cc(N2CCN(C)CC2)c2oc(C(=O)Nc3ccc(N4CCN(C(=O)CCO)CC4)cc3)cc(=O)c2c1 | 195 to 197 °C

Asked: Using the record for "CCNC(=O)N1CCN(c2ccc(NC(=O)c3cc(=O)c4cc(F)cc(N5CCN(C)CC5)c4o3)cc2)CC1" , report its melting point.
Given back: 236 to 238 °C

Asked: Using the record for CN1CCN(c2cccc3c2OC(C(=O)Nc2ccc(N4CCOCC4)cc2)CC3=O)CC1 (single isomer, unassigned) [Example 79] , report its melting point.
Given back: 216 °C (dec.)

Asked: Using the record for "CCC(=O)N1CCN(c2ccc(NC(=O)c3cc(=O)c4cc(F)cc(N5CCN(C)CC5)c4o3)cc2)CC1" , report its melting point.
Given back: 244 to 245 °C

Asked: Using the record for CN1CCN(c2cccc3c2OC(C(=O)Nc2ccc(N4CCOCC4)cc2)CC3)CC1 (racemic) [Example 75] , report its melting point.
Given back: 215 to 216 °C

Asked: Using the record for CN1CCN(c2cccc3c2OC(C(=O)Nc2ccc(N4CCOCC4)cc2)CC3)CC1 (single isomer, unassigned; (+)) [Example 76] , report its melting point.
Given back: 206 to 207 °C

Asked: Using the record for "CCS(=O)(=O)N1CCN(c2ccc(NC(=O)c3cc(=O)c4cc(OC)cc(N5CCN(C)CC5)c4o3)cc2)CC1" , report its melting point.
Given back: 232 to 234 °C
